Tested System: Ubiquitin carboxyl-terminal hydrolase BAP1 (Homo sapiens) (UniProt Q92560)
Sequence (Q92560 whole entry, looked up): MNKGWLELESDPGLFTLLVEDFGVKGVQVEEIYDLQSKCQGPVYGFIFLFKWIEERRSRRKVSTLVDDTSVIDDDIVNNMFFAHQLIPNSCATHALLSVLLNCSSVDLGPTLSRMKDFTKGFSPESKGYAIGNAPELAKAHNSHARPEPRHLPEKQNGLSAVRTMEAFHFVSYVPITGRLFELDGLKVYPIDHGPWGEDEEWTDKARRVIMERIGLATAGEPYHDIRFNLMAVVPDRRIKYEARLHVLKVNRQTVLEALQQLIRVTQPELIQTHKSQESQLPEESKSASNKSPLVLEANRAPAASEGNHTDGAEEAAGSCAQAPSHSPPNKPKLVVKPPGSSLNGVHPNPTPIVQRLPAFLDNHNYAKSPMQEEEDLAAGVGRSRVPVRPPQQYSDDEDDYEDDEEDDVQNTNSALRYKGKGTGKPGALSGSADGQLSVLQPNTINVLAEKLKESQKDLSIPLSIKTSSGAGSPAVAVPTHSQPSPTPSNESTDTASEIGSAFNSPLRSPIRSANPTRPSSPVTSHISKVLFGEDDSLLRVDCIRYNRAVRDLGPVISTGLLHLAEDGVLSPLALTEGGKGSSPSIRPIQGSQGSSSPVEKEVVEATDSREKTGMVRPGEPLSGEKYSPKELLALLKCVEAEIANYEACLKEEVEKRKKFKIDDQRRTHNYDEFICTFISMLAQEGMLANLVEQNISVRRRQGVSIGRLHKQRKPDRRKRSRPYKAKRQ
Protocol Description: inhibitors of BAP1 deubiquitinase, primary screen, biochemical, Ub-AMC fluorescence, kinetic (AID 436);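 further: 100% = DMSO wells rate and 0% = substrate alone blank rate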
Protocol Conditions: recombinant BAP1, Ub-AMC hydrolysis fluorescence kinetic; at 20 µM; active compounds read low
The campaign covered roughly 72,000 compounds. About 350 (0.49%) were called active. Many of the other results were omitted from the sample, so actives are more common in it than they were.
Observation Type: activity remaining (% of control) (%)
# value in %; strip the unit string

Request: Return activity remaining (% of control) measured with Ubiquitin carboxyl-terminal hydrolase BAP1 (Homo sapiens) (UniProt Q92560) given this compound: O=C(Cn1c(=O)sc2ccccc21)Nc1nc2c(s1)CCCC2
Response: 79.8

Request: Form entry - test system: Ubiquitin carboxyl-terminal hydrolase BAP1 (Homo sapiens) (UniProt Q92560); read-out: activity remaining (% of control); compound: Brc1ccc(-c2nc3ccccc3nc2-c2ccccc2)cc1
Response: 66.2

Request: Record CCCCOc1ccc(C(=O)Nc2nc3ccc4nc(C)sc4c3s2)cc1 : what is its activity remaining (% of control) with Ubiquitin carboxyl-terminal hydrolase BAP1 (Homo sapiens) (UniProt Q92560)?
Response: 167

Request: Please provide the recorded activity remaining (% of control) for Nc1nnc(-c2ccccc2SCc2ccc(F)cc2)s1 , tested on Ubiquitin carboxyl-terminal hydrolase BAP1 (Homo sapiens) (UniProt Q92560).
Response: 68.2

Request: Provide value of activity remaining (% of control) for this record tested with Ubiquitin carboxyl-terminal hydrolase BAP1 (Homo sapiens) (UniProt Q92560): Clc1ccc2[nH]c3ccccc3c2c1
Response: 65

Request: Return activity remaining (% of control) measured with Ubiquitin carboxyl-terminal hydrolase BAP1 (Homo sapiens) (UniProt Q92560) given this compound: COc1cc(-c2nnc(SCC(=O)c3ccc(Cl)cc3)o2)cc(OC)c1OC
Response: 135

Request: Enter reported activity remaining (% of control) observed with Ubiquitin carboxyl-terminal hydrolase BAP1 (Homo sapiens) (UniProt Q92560) for CCn1c(N2CCCC2)nc2c1c(=O)n(C)c(=O)n2C
Response: 117

Request: Enter reported activity remaining (% of control) observed with Ubiquitin carboxyl-terminal hydrolase BAP1 (Homo sapiens) (UniProt Q92560) for S=c1[nH]nc(COc2ccccc2)o1
Response: 52.5

Request: Look up activity remaining (% of control) with Ubiquitin carboxyl-terminal hydrolase BAP1 (Homo sapiens) (UniProt Q92560) for this compound: CCC(=O)OCC1OC(n2ccc(=O)[nH]c2=O)CC1OC(=O)CC (stereo not drawn)
Response: 130

Request: Return activity remaining (% of control) measured with Ubiquitin carboxyl-terminal hydrolase BAP1 (Homo sapiens) (UniProt Q92560) given this compound: CCN(CC)S(=O)(=O)c1ccc(C(=O)Nc2nc3c(s2)C(=O)CC(C)(C)C3)cc1
Response: 55.1

Request: What activity remaining (% of control) appears in the records for this compound with Ubiquitin carboxyl-terminal hydrolase BAP1 (Homo sapiens) (UniProt Q92560)? NC(=O)c1c(NC(=O)CCCCCN2C(=O)c3ccccc3C2=O)sc2c1CCC2
Response: 140

Request: Given the entry CN1C(=O)C(=O)/C(=C(/O)c2ccc(F)cc2)C1c1ccc(F)cc1 (stereo not drawn) , what activity remaining (% of control) was observed with Ubiquitin carboxyl-terminal hydrolase BAP1 (Homo sapiens) (UniProt Q92560)?
Response: 58.4

Request: Entry O=[N+]([O-])c1ccc(C=Nc2nc3c(s2)CCCC3)cc1 , system Ubiquitin carboxyl-terminal hydrolase BAP1 (Homo sapiens) (UniProt Q92560): what activity remaining (% of control) was measured?
Response: 113

Request: Enter reported activity remaining (% of control) observed with Ubiquitin carboxyl-terminal hydrolase BAP1 (Homo sapiens) (UniProt Q92560) for Cc1cccc2cc(CN(Cc3cccs3)C(c3nnnn3C3CCCC3)C(C)C)c(=O)[nH]c12 (stereo not drawn)
Response: 57.3

Request: Lab request: please report activity remaining (% of control) under test system Ubiquitin carboxyl-terminal hydrolase BAP1 (Homo sapiens) (UniProt Q92560) for CCCOc1ccc(C(=O)Nc2c(C)ccc3nsnc23)cc1
Response: 203

Request: activity remaining (% of control) of Cc1cc(C)cc(NC(=O)CCN2C(=O)c3ccccc3C2=O)c1 on Ubiquitin carboxyl-terminal hydrolase BAP1 (Homo sapiens) (UniProt Q92560)?
Response: 49.9

Request: Provide value of activity remaining (% of control) for this record tested with Ubiquitin carboxyl-terminal hydrolase BAP1 (Homo sapiens) (UniProt Q92560): COC(=O)C1=C(C)Nc2nnnn2C1c1ccccc1 (stereo not drawn)
Response: 171

Request: Give Ubiquitin carboxyl-terminal hydrolase BAP1 (Homo sapiens) (UniProt Q92560) activity remaining (% of control) for COc1ccc(C=Nc2sc(C)c(C)c2C#N)cc1
Response: 103

Request: Recall the recorded activity remaining (% of control) for CC1=C(C(=O)OCc2ccccc2)C(c2ccccc2I)NC(=O)N1C (stereo not drawn) with Ubiquitin carboxyl-terminal hydrolase BAP1 (Homo sapiens) (UniProt Q92560) and state it.
Response: 104

Request: Identify the measured activity remaining (% of control) of Fc1ccc2nc(N3CCCCC3)sc2c1 for Ubiquitin carboxyl-terminal hydrolase BAP1 (Homo sapiens) (UniProt Q92560).
Response: 108

Request: For Ubiquitin carboxyl-terminal hydrolase BAP1 (Homo sapiens) (UniProt Q92560), provide activity remaining (% of control) of CC(C)(C)c1ccc(OCC(O)CN2CCN(c3ccccc3F)CC2)cc1 (stereo not drawn) please.
Response: 152

Request: # value lookup — system Ubiquitin carboxyl-terminal hydrolase BAP1 (Homo sapiens) (UniProt Q92560), readout activity remaining (% of control), item Cc1ccc(S(=O)(=O)N(CC(O)CN2C(=O)NC(C)(C)C2=O)c2cccc([N+](=O)[O-])c2)cc1 (stereo not drawn)
Response: 74.1

Request: Identify the measured activity remaining (% of control) of CCOc1ccc(Nc2cc(C)nc3ncnn23)cc1 for Ubiquitin carboxyl-terminal hydrolase BAP1 (Homo sapiens) (UniProt Q92560).
Response: 112
